# measurement_target: Cytochrome P450 1A2 (Homo sapiens)
# measurement_description: p450-cyp1a2 (AID 410)
# applied_conditions: recombinant CYP1A2, luciferin-ME demethylation, luminescence; series mostly up to 57 µM
Records with an inconclusive call do not appear. Active and inactive are the calls of the source. Calls follow the shape of the full dose curve.
Choose the fitting class; nothing outside active, inactive is accepted.

Q: Please share the test call associated with "COc1ccc2[nH]cc(CCNc3ncncc3-c3ccccc3CN(C)C)c2c1" .
Result: active

Q: Please share the test call associated with "Cc1noc(C)c1-c1nccc(N(C)Cc2ccco2)n1" .
Result: active

Q: Please share the test call associated with "CC(=O)N1CCC2(CC1)CCN(c1ccccn1)CC2" .
Result: inactive

Q: Please share the test call associated with "N#Cc1cccc(NC(=O)N2CCCC3(CCN(C(=O)c4cccc(F)c4)CC3)C2)c1" .
Result: active

Q: Please share the test call associated with "CN(C)c1ncc2nc(-c3ccc(Cl)cc3)c(=O)n(C)c2n1" .
Result: active

Q: Please share the test call associated with "NS(=O)(=O)c1cc([C@@]2(O)NC(=O)c3ccccc32)ccc1Cl" .
Result: inactive

====

# measurement_description: AP1 Signaling Pathway (AID 357);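 also: ME-180 reporter cells stimulated with EGF at its EC50 level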
# applied_conditions: ME-180 (cervical carcinoma) AP-1-bla reporter, EGF-induced, beta-lactamase ratio, 5 h; at 7.69 µM (top of the series) unless noted
Inconclusive results are not listed. Active and inactive are the calls of the source. Calls follow the shape of the dose curve; as a rule, active = well fitted curve in either direction with a large enough effect (not every such curve was filed as active); inconclusive = small, poorly fitted or top-dose-only effect, or another doubt; inactive = flat fitted curve, though single readings scatter.
Choose the fitting class; nothing outside T = active, F = inactive is accepted.

Q: Please share the test call associated with "CCNc1ncc2ncc(=O)n(C)c2n1" .
Result: F

Q: Please share the test call associated with "Cc1ccccc1-c1cc(N(C)Cc2ccco2)ncn1" .
Result: F

Q: Please share the test call associated with "Cc1cnc(CNc2cc(-c3ccccc3CN(C)C)ncn2)cn1" .
Result: F

Q: Please share the test call associated with "Cc1ccccc1-c1nccc(-n2ccnc2)n1" .
Result: F

Q: Please share the test call associated with "O=c1c(-c2ccc(F)cc2)nc2cnc(N3CCOCC3)nc2n1CCc1ccccc1" .
Result: T

Q: Please share the test call associated with "Cc1cnc(CNc2ncnc3ccc(-c4ccc5c(c4)OCO5)cc23)cn1" .
Result: F

Q: Please share the test call associated with "c1ccc(C(c2ccccc2)N2CC3(CCNCC3)C2)cc1" .
Result: F

Q: Please share the test call associated with "Cc1noc(C)c1-c1nc(Nc2ccccc2)c2ccccc2n1" .
Result: F

Q: Please share the test call associated with "O=C(Nc1cccc(F)c1)N1CCC2(CC1)CCN(C(=O)c1cccc(F)c1)CC2" .
Result: F

Q: Please share the test call associated with "COc1ccc(Oc2ncc3nc(C)c(=O)n(C4CC4)c3n2)cc1" .
Result: F

Q: Please share the test call associated with "COc1ccccc1-c1nccc(NCc2cccnc2)n1" .
Result: F

Q: Please share the test call associated with "COCC(=O)N1CCC2(CC1)CN(c1ccccc1)C2" .
Result: F

====

# measurement_target: 3',5'-cyclic-AMP phosphodiesterase 4B (Homo sapiens)
# measurement_description: qHTS Assay for Inhibitors of PDE-IV (AID 607)
# applied_conditions: HEK293 ACTOne CNG channel cells, membrane potential fluorescence; series mostly up to 22.9 µM
Records with an inconclusive call do not appear. Calls of active or inactive are those of the source. Calls follow the shape of the dose curve; as a rule, active = well fitted activation curve with a large enough effect in the main read-out, with a control signal flat (not every such curve was filed as active); inconclusive = small, poorly fitted or top-dose-only effect, or effect the other way, or a change in a side signal; inactive = flat fitted curve, though single readings scatter.
Choose the fitting class; nothing outside active, inactive is accepted.

Q: Please share the test call associated with "N#Cc1cccc(-c2nc3cnc(Nc4ccccc4)nc3n(C[C@H]3CCCO3)c2=O)c1" .
Result: inactive

Q: Please share the test call associated with "CNc1ncnc2ccc(-c3cccc(NS(C)(=O)=O)c3)cc12" .
Result: inactive

Q: Please share the test call associated with "Nc1nc2n[nH]nc2c(=O)[nH]1" .
Result: inactive

Q: Please share the test call associated with "O=c1cnc2cnc(Nc3ccccc3)nc2n1C[C@H]1CCCO1" .
Result: inactive

Q: Please share the test call associated with "CC(C)CN1CC2(CCN(C(=O)c3ccco3)CC2)C1" .
Result: inactive

Q: Please share the test call associated with "COCCn1c(=O)c(-c2cn(C)c3ccccc23)nc2cnc(Oc3ccc(OC)cc3)nc21" .
Result: inactive

Q: Please share the test call associated with "COCC(=O)N1CCC[C@@]2(CCN(c3ccccc3)C2)C1" .
Result: inactive

Q: Please share the test call associated with "CS(=O)(=O)Nc1cccc(-c2nc(N3CCNCC3)c3ccccc3n2)c1" .
Result: inactive

Q: Please share the test call associated with "COc1cc(/C=C\c2ccc(OC)cc2OC)cc(OC)c1" .
Result: inactive

Q: Please share the test call associated with "CCNc1ncc2nc(-c3ccc(Cl)cc3)c(=O)n(C)c2n1" .
Result: inactive

Q: Please share the test call associated with "O=C(Nc1cccc(F)c1)N1CCC2(CC1)CCN(C(=O)c1cc(C(F)(F)F)cc(C(F)(F)F)c1)CC2" .
Result: inactive

Q: Please share the test call associated with "COCC(=O)N1CCC2(CCCN(c3ccccc3)C2)CC1" .
Result: inactive

Q: Please share the test call associated with "COc1ccc(-c2nc3cnc(N4CCOCC4)nc3n(Cc3cccs3)c2=O)cc1" .
Result: active

Q: Please share the test call associated with "COc1cccc(Cn2c(=O)c(-c3cccs3)nc3cnc(Nc4ccccc4)nc32)c1" .
Result: inactive

Q: Please share the test call associated with "CN(C)C(=O)c1ccc(-c2nccc(NCc3cccs3)n2)cc1" .
Result: inactive

Q: Please share the test call associated with "COc1ccc(CNc2ccnc(-c3ccccc3Cl)n2)c(OC)c1" .
Result: inactive

Q: Please share the test call associated with "Cc1nc2cnc(Oc3ccccc3)nc2n(-c2ccccc2)c1=O" .
Result: inactive

Q: Please share the test call associated with "O=C(Nc1cccc(F)c1)N1CC[C@@]2(CCCN(C(=O)c3cnccn3)C2)C1" .
Result: inactive

Q: Please share the test call associated with "N#Cc1ccc(CN2CC3(CCN(C(=O)c4ccco4)CC3)C2)cc1" .
Result: inactive

Q: Please share the test call associated with "N#Cc1ccc(CN2CC3(CCN(C(=O)c4csnn4)CC3)C2)cc1" .
Result: inactive

Q: Please share the test call associated with "CN1CCN(c2ncc3nc(-c4cn(C)c5ccccc45)c(=O)n(Cc4cccs4)c3n2)CC1" .
Result: inactive

Q: Please share the test call associated with "NC(=O)c1cc[n+](CC2=C(C(=O)O)N3C(=O)[C@@H](NC(=O)[C@H](c4ccccc4)S(=O)(=O)[O-])[C@@H]3SC2)cc1" .
Result: inactive

Q: Please share the test call associated with "Cc1nc2cnc(Nc3ccccc3)nc2n(C[C@H]2CCCO2)c1=O" .
Result: inactive

Q: Please share the test call associated with "N#Cc1cccc(NC(=O)N2CCC3(CC2)CCN(C(=O)c2cccc(F)c2)CC3)c1" .
Result: inactive

Q: Please share the test call associated with "CCNc1ncc2ncc(=O)n(C)c2n1" .
Result: inactive

Q: Please share the test call associated with "CC1(C)O[C@@H]2C[C@H]3[C@H]4C[C@H](F)C5=CC(=O)C=C[C@@]5(C)[C@@H]4[C@H](O)C[C@]3(C)[C@]2(C(=O)CO)O1" .
Result: inactive

Q: Please share the test call associated with "N#Cc1cccc(NC(=O)N2CC[C@@]3(CCCN(C(=O)c4cccc(F)c4)C3)C2)c1" .
Result: inactive

Q: Please share the test call associated with "COc1ccccc1CN1CC2(CCN(C(=O)c3cccc(F)c3)CC2)C1" .
Result: inactive

Q: Please share the test call associated with "Cc1noc(C)c1-c1nccc(N2CCN(C)CC2)n1" .
Result: inactive

Q: Please share the test call associated with "CN1CCN(c2ncc3nc(-c4cn(C)c5ccccc45)c(=O)n(C)c3n2)CC1" .
Result: inactive

Q: Please share the test call associated with "CN1CCN(c2ncc3ncc(=O)n(CCc4ccccc4)c3n2)CC1" .
Result: inactive

Q: Please share the test call associated with "COCC(=O)N1CCC[C@@]2(CCN(C(=O)Nc3ccccc3)C2)C1" .
Result: inactive

Q: Please share the test call associated with "O=c1c(-c2cc(F)cc(F)c2)nc2cncnc2n1Cc1ccccc1Cl" .
Result: inactive

Q: Please share the test call associated with "FC(F)(F)c1ccccc1-c1nc(-n2ccnc2)c2ccccc2n1" .
Result: inactive

Q: Please share the test call associated with "CNc1nc(-c2ccc(N(C)C)cc2)nc2ccccc12" .
Result: inactive

Q: Please share the test call associated with "CN1CCN(c2ncc3nc(-c4cccc(C#N)c4)c(=O)n(CCC#N)c3n2)CC1" .
Result: inactive

Q: Please share the test call associated with "COc1ccc(-n2c(=O)c(-c3cn(C)c4ccccc34)nc3cncnc32)cc1" .
Result: inactive

Q: Please share the test call associated with "O=C(c1cccc(F)c1)N1CCC2(CCCN(C(c3ccccc3)c3ccccc3)C2)CC1" .
Result: inactive

Q: Please share the test call associated with "CC(=O)N1CCC2(CCCN(Cc3cc(C(F)(F)F)cc(C(F)(F)F)c3)C2)CC1" .
Result: inactive

Q: Please share the test call associated with "COc1ccc(-c2nc3cnc(OC)nc3n(-c3ccc(OC)cc3)c2=O)cc1" .
Result: inactive

Q: Please share the test call associated with "Cn1cc(-c2nc3cnc(Oc4ccccc4)nc3n(CCC#N)c2=O)c2ccccc21" .
Result: inactive

Q: Please share the test call associated with "CCNc1ncc2nc(-c3cc(F)cc(F)c3)c(=O)n(CCC#N)c2n1" .
Result: inactive
